Test Summary: soluble fraction after stress (log2 fold change); higher = more stays soluble; pooled small domains, quantitative proteomics;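 note: 20 min heating vs room temperature control held 20 min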
Details: stress: 75 degC
Experimental Readout: soluble fraction (log2)
Could you keep your reply to the number by itself?

Sequence Code: HMVDIIMDLLEAVAQARPADAFIKSLHIQYQERGGLSKKQLQGLYGKAAKTAGIPPGKLATLEAIILKRP
soluble fraction (log2): -2.52
--
Sequence Code: HMKNETFAITSEDAGKRLDVWLTNILGDYSRSYVERLVEQGNVTVGGKTVKAGYKLKAGDSVQVSIPGPK
soluble fraction (log2): 0.144
--
Sequence Code: HMPIKYTHKGYTINVSRSKMNGTTFVKVVDPKGQVIQQSQDNRIQDVNQLVTTMKQYIDTLKPS
soluble fraction (log2): -0.274
--
Sequence Code: HMYGTERILAQLANYGIPNKLAFQIQDFYKEETLQIVEQQPYRLVEDIQGMGFKIADQLAEELGI
soluble fraction (log2): -0.307
--
Sequence Code: HMGETWYEILEISSDATTEEIRQAYFEQARQYHPDTNPGELAREWFYQVQEAYETLSDPDRRRQYDESIKG
soluble fraction (log2): -0.0285
--
Sequence Code: HMDADGEPIKLDQIGISHLSFTVADVKSLGEELVAKGVKLAAPMEAFTSPEGRISSIFVYDPDGILLQFDD
soluble fraction (log2): 0.136
--
Sequence Code: HMPILRDEVYLSIKEAILTGELAPGERISIGRLLPQIGFSPTPIREALLKLEQEGFVSRLQRGGFIVSR
soluble fraction (log2): -1.91
--
Sequence Code: HMGTVISVDKARSIALAKVPGASANDIRIHLDRDDGRQIYEGEIYYNRMEYEFEIDASTGTIIEWSAEHW
soluble fraction (log2): -2.33

Record request: soluble fraction (log2) value, item `HMDYYKILGLSTSATLDQIKKAFRQLAIEFHPDKNPNNPTAEDKFQRISEAYAVLSNPEKRAEYDRSY` -0.0123

What about `HMGKPAGLIRELGNHPEDEKPVTLNNGRFGPYVKHGKVMASLTKADSPDDITFDRAIELIAIKAEKMAAKG` ? 0.173

Also `HMSFVDFYGLFTTELQRLAELPVTADELIKNTGLHKSQLTDWLKRAEEDGVVKKLNRPVRYQVEKK` , if possible. -1.66

// query: `HMNGLDSVLRNWARQTLASGGENLLGDLTDHVTRLIISEALIMTGGNRTRAAELLGLSRPTLLAKMDKLNL` -2.92

Check `HMKTLELIAAIRKRIAGGYAGADGRLPNIGEIAKDFSVSPMTAQKAVRALVEAGVLTSTRRKGVFLKQPAS` too. -2.09

Note, next up: `HMAPDAPDGFVHRWIRAEMLGQEDKSNVHRRMQEGYELVRADEYPDSDLPVAEGRYAGIIGVGGLLLARF` -0.206

Same thing, different sequence: `HMKGKITTNWVSLTSDLGWLRSELYSSGSVLEERISNEGLIELHLENFQNDLIKLLEVEGFDLIKE` -3.18

// provenance: the domain aggregation screens of Martell et al. (2025)
